- measurement_notes: Clearance in cynomolgus monkey at 1 mg/kg, iv
- Format: ADME, organism-based, Macaca fascicularis
- Set-up: dose 1 mg/kg, route intravenous
- test_context: in vivo
A collection of molecules and their measured clearance
measured_metric: clearance

molecule: Cc1cc(C#N)nc(C)c1C(=O)N1CCC(C)(N2CCC(N3C(=O)N(C4CCOCC4)CC3c3ccccc3)CC2)CC1 (racemic)
reported_measurement: 17 mL/min/kg
//
molecule: Cc1ncnc(C)c1C(=O)N1CCC(C)(N2CCC(N3C(=O)N(CC4CCOCC4)C[C@H]3c3ccccc3)CC2)CC1
reported_measurement: 39 mL/min/kg

====

- Test system: Liver microsomes
- measurement_notes: Intrinsic clearance in rat liver microsomes
- Type: ADME, Microsome
measured_metric: CL (µL/min)

compound: Cc1cc(C#N)nc(C)c1C(=O)N1CCC(C)(N2CCC(N3C(=O)N(CC4CCOCC4)C[C@@H]3c3ccccn3)CC2)CC1
reported_measurement: 87
//
compound: CCO[C@H]1CC[C@H](CN2C[C@@H](c3ccccc3)N(C3CCN(C4(C)CCN(C(=O)c5c(C)ncnc5C)CC4)CC3)C2=O)CC1
reported_measurement: 89
//
compound: Cc1ncnc(C)c1C(=O)N1CCC(C)(N2CCC(N3C(=O)N(CC4CCOCC4)CC3c3ccccc3)CC2)CC1 (racemic)
reported_measurement: 14
//
compound: Cc1cc(C#N)nc(C)c1C(=O)N1CCC(C)(N2CCC(N3C(=O)N(C4CCOCC4)C[C@H]3c3ccccc3)CC2)CC1
reported_measurement: 55

meta.source: ChEMBL document CHEMBL1155507
